- measurement.protocol: NCI Yeast Anticancer Drug Screen. Data for the mlh1 rad18 strain (AID 175)
- assay.conditions: S. cerevisiae mlh1 rad18 strain growth inhibition; at 50.0 µM; hits give high values
The panel holds about 79,000 compounds, 15% with a hit somewhere; the sample as a whole holds those more often. Calls of active or inactive are those of the source. No stated cut-off is given here; in the data, active means growth inhibition above about 70%; inactive means the rest.
reported.metric: growth inhibition

The compound listed as O=C(O)CC1OCC=C2C[N+]3([O-])CCC45c6ccccc6NC4C1C2CC53 (configuration not stated) has a reported growth inhibition of 10.6% (inactive)

The compound listed as Cc1ccc(Cl)cc1NC(=O)C(C)Oc1ccccc1 (configuration not stated) has a reported growth inhibition of 13.9% (inactive)

The compound listed as O=C(COc1ccc(Cl)cc1)N1N=C(c2ccc(Cl)cc2)CC1(O)c1ccccc1 (configuration not stated) has a reported growth inhibition of -10.6% (inactive)

The compound listed as CCc1ccc(/C=C/C(=O)C(C)CN(C)C)cc1 (configuration not stated) has a reported growth inhibition of 9.85% (inactive)

The compound listed as CC(=O)C1C(=O)C(=O)N(c2ccc([N+](=O)[O-])cc2Cl)C1=O (configuration not stated) has a reported growth inhibition of -33.2% (inactive)

The compound listed as `CCN(S(C)(=O)=O)S(C)(=O)=O` has a reported growth inhibition of -15.8% (inactive)

----------
- measurement.protocol: NCI Yeast Anticancer Drug Screen. Data for the mec2-1 strain (AID 157)
- assay.conditions: S. cerevisiae mec2-1 strain, at 50.0 µM, hits give high values
The panel holds about 79,000 compounds, 15% with a hit somewhere; the sample as a whole holds those more often.
Readings of growth inhibition for the listed compounds
Please respond with the number in % and leave the unit unwritten.

> print(dat)
                                   compound    reported.metric  unit  endpoint.result
1  NC(=O)C12OC1(Cl)CCCC2(Cl)Cl (centres undefined)  growth inhibition     %            -27.9
2  CCC(=O)C(CC)c1ccc(OC)cc1OC (centres undefined)  growth inhibition     %            -31.4
3      O=[N+]([O-])c1ccc(N=Cc2ccc(O)cc2)cc1  growth inhibition     %            -19.2
4     Cc1cc(Cl)cc(Cl)c1OCC(=O)Nc1ccc(Cl)cc1  growth inhibition     %             2.45
5                N#CC1(N)c2ccccc2-c2ccccc21  growth inhibition     %             1.95
6   O=C(NCCCl)NCC1CCCO1 (centres undefined)  growth inhibition     %            -1.25

The compound listed as `Cc1nc2c(c(-c3ccccc3)n1)Cc1ccccc1O2` has a reported growth inhibition of -12.4

The compound listed as CC(SC(=S)SC(C)C(=O)O)C(=O)O (centres undefined) has a reported growth inhibition of 15.3

The compound listed as `CCCCNC(=O)CC` has a reported growth inhibition of -11.2

The compound listed as `Cc1ccc2c(c1)sc(C)[n+]2CCO` has a reported growth inhibition of -19.5

The compound listed as O=C(/C=C/c1ccccc1)NC(Cc1ccccc1)C(=O)O (centres undefined) has a reported growth inhibition of -11.4

----------
- measurement.protocol: NCI Yeast Anticancer Drug Screen. Data for the mec2-1 strain (AID 157)
- assay.conditions: S. cerevisiae mec2-1 strain, at 50.0 µM
About 79,000 compounds went through this panel and 15% of them were active in at least one assay; those are over-represented in the sample as a whole. Active and inactive are the calls of the source. Cut-off read from the data, not from the text of the source: active = growth inhibition above about 70%; inactive = the rest.
The reply should be one of these categories: active, inactive

Worked examples, 3 compounds total:
> print(dat)
                                   compound  discrete.label
1                CCCNC(=S)N/N=C/c1cccc(C)n1        inactive
2           Oc1cc2nc3ccccc3nc2c2ccc(Br)cc12        inactive
3  CCc1cc2c(c3c1CCCC3=O)CC1(Cc3ccc(C(=O)OC)cc3C1)C2 (stereo not drawn)        inactive

Now consider the entry below.
*Q* Hi team, can someone confirm the assay call for `NS(=O)(=O)c1cc(C(=O)O)c(O)c2ccccc12` ?
*A* inactive
